test: amyloid nucleation score (Sup35N fusion, yeast selection) (log enrichment); library NNK2; higher = more nucleation; inactive = no reads after selection;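 note: zero at mode of non-aggregating sequences after 7 days selection at 30°C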
Measure: amyloid nucleation score
Form: value (number only, do not type unit).

These solved cases illustrate the format of a correct answer.
| Substance | Numeric value |
| --- | --- |
| SVGRHS | -0.841 |
| HATSMCNWAVFIECFFFGKL | 5.39 |
| ESIYLVGICGSSG | 0.247 |
| RVLTGWVVA | 0.215 |

Request: Name the recorded amyloid nucleation score for `VSVGACTHTLYKVRALSQGV` .
Response: 0.486

Request: Name the recorded amyloid nucleation score for `HWTYTFRLNSSSSIYQNCSD` .
Response: -0.71

====

test: amyloid nucleation score (Sup35N fusion, yeast selection) (log enrichment); library NNK2; higher = more nucleation; inactive = no reads after selection
amyloid nucleation score below 0.2 gives Not met; amyloid nucleation score at or above it gives Met.

Solved cases (5 shown):
| Substance | Group |
| --- | --- |
| LRVHESAGSNLVVWIKIVLE | Met |
| VVYSSSFVAGLYDSMCWMWG | Met |
| YCSLLL | Met |
| VGRTVMKWACIVE | Met |
| MAYGGPFSVLSSWDDADNGY | Not met |

Request: Threshold query (amyloid nucleation score >= 0.2) on `RNLTFYKTSPVGRC`
Response: Met

Request: Threshold query (amyloid nucleation score >= 0.2) on `MDCECG`
Response: Met

Request: Threshold query (amyloid nucleation score >= 0.2) on `QVCRDDYEVDFLGCGCPRGH`
Response: Not met

Request: Threshold query (amyloid nucleation score >= 0.2) on `VMGIEMIFVVGLWQLEDVKG`
Response: Met

Request: Threshold query (amyloid nucleation score >= 0.2) on `ARFSKHHLTKVLFGKDYQAP`
Response: Met

Request: Threshold query (amyloid nucleation score >= 0.2) on `VVKDLRT`
Response: Met

Request: Threshold query (amyloid nucleation score >= 0.2) on `LFAYNDAFSEYFTITYVYQ`
Response: Not met

Request: Threshold query (amyloid nucleation score >= 0.2) on `HTTDEISAS`
Response: Met

Request: Threshold query (amyloid nucleation score >= 0.2) on `YPYSPLSKRRNLRWINFVRC`
Response: Not met

Request: Threshold query (amyloid nucleation score >= 0.2) on `FRSVFDKFLRYVFSFDVY`
Response: Not met

Request: Threshold query (amyloid nucleation score >= 0.2) on `FKDTWQSPGAVERKGMRTSV`
Response: Met

Request: Threshold query (amyloid nucleation score >= 0.2) on `LQYAKSHRVSWDGMAANSPG`
Response: Not met

Request: Threshold query (amyloid nucleation score >= 0.2) on `SLEDCYCDRVI`
Response: Not met

====

Known amyloid nucleation score of a selection of substances
assay: amyloid nucleation score (Sup35N fusion, yeast selection) (log enrichment); library NNK2; higher = more nucleation; inactive = no reads after selection
Form: value (number only, do not type unit).

These solved cases illustrate the format of a correct answer.
| Substance | amyloid nucleation score |
| --- | --- |
| YCGVSLFSINTYSY | 6.94 |
| ISFYVCVIML | 7.43 |
| NKMGVKVYTRIAQHSGHLFA | 5.21 |
| RCPGCDE | 1.26 |
| KCSTVYASGFWLPWTVVPGR | 0.418 |
| PINKGKWCSTNFNAGITRI | -0.01 |
| HLVMCMARVGTTVNLMSHQT | 6.3 |
| EWLIAW | 1.29 |

Request: Name the recorded amyloid nucleation score for `NRICYRLGCLRADNDNDLSG` .
Response: -0.234

Request: Name the recorded amyloid nucleation score for `SSLEFYVFWYP` .
Response: -1.14

Request: Name the recorded amyloid nucleation score for `FFFVLFGFWYKTRWSMCISK` .
Response: 2.31

====

assay: amyloid nucleation score (Sup35N fusion, yeast selection) (log enrichment); library NNK2; higher = more nucleation; inactive = no reads after selection
amyloid nucleation score below 0.5 gives No; amyloid nucleation score at or above it gives Yes.

Solved cases (5 shown):
| Input sequence | Group |
| --- | --- |
| IWSCRGQLGSSFTPSGNCTG | Yes |
| CTSCLGKRFSCLTINAGLSW | No |
| ILGISCVFY | Yes |
| EFYPTHDFVQRDRRVTRLRI | Yes |
| KITMDPGLVRIHNFGQTSLV | No |

Request: Threshold query (amyloid nucleation score >= 0.5) on `SFKYCMMISGGF`
Response: Yes

Request: Threshold query (amyloid nucleation score >= 0.5) on `TWTRLALFMLIPSG`
Response: No

====

experiment: amyloid nucleation score (Sup35N fusion, yeast selection) (log enrichment); library NNK2; higher = more nucleation; inactive = no reads after selection
Measure: amyloid nucleation score

| Substance | Result |
| --- | --- |
| KWFGSRFYYLYKPPLFSHLA | inactive |
| CLDPLAMSN | inactive |
| MYTLYS | inactive |

====

assay: amyloid nucleation score (Sup35N fusion, yeast selection) (log enrichment); library NNK1; higher = more nucleation; inactive = no reads after selection
Recorded amyloid nucleation score split into classes class 1 (below 0.04), class 2 (0.04 to below 0.6), class 3 (0.6 or more)

Solved cases (5 shown):
| Substance | Group |
| --- | --- |
| GMAHDWSRQWVRVSDAVLLR | class 1 |
| DLSNNRWWFNRFRALHYKSS | class 1 |
| GKPLTTVVAIIF | class 3 |
| MFVGGRTNTQMYHMDVVPFQ | class 3 |
| VGLLEAFMLRGDSRRCD | class 1 |

Request: Hi, small favor: classify `QFKFINVDEAHT` by its amyloid nucleation score when you get a moment.
Response: class 2

Request: Hi, small favor: classify `TLISSGNVHYMWKVTFLNNR` by its amyloid nucleation score when you get a moment.
Response: class 3

Request: Hi, small favor: classify `KTAPGLKCIQIEVWQY` by its amyloid nucleation score when you get a moment.
Response: class 1

Request: Hi, small favor: classify `AMLLLTCGL` by its amyloid nucleation score when you get a moment.
Response: class 2

====

assay: amyloid nucleation score (Sup35N fusion, yeast selection) (log enrichment); library NNK2; higher = more nucleation; inactive = no reads after selection
amyloid nucleation score below -0.06 gives criterion not met; amyloid nucleation score at or above it gives criterion met.

| Substance | Group |
| --- | --- |
| ETAQLWYSRVACCKKRVVYG | criterion met |

Request: Threshold query (amyloid nucleation score >= -0.06) on `FDYVLSGICIPLKSIGVSFG`
Response: criterion met

Request: Threshold query (amyloid nucleation score >= -0.06) on `TYSLICQSTTKRFWVWKATL`
Response: criterion not met

Request: Threshold query (amyloid nucleation score >= -0.06) on `SALHCISLDVHRIFGSKNAR`
Response: criterion met

Request: Threshold query (amyloid nucleation score >= -0.06) on `NVCIKLARCVVGLNLRFRGS`
Response: criterion not met

Request: Threshold query (amyloid nucleation score >= -0.06) on `CHLKFNANVKWLGSLGKLEY`
Response: criterion met

Request: Threshold query (amyloid nucleation score >= -0.06) on `WGFTLWKLWRV`
Response: criterion met

Request: Threshold query (amyloid nucleation score >= -0.06) on `IDSFDPGFRRHLDRSWIRRH`
Response: criterion met

Request: Threshold query (amyloid nucleation score >= -0.06) on `LVTVSVVPSWSAVRPTGMNV`
Response: criterion met

Request: Threshold query (amyloid nucleation score >= -0.06) on `KIVWCLVYNRDYYLQYRTIS`
Response: criterion not met

Request: Threshold query (amyloid nucleation score >= -0.06) on `DFANFMGCMVNEAPRLHFAL`
Response: criterion met

Request: Threshold query (amyloid nucleation score >= -0.06) on `MRFRLCNYLLRRVWDLNRGA`
Response: criterion not met

====

test: amyloid nucleation score (Sup35N fusion, yeast selection) (log enrichment); library NNK2; higher = more nucleation; inactive = no reads after selection
Measure: amyloid nucleation score

These solved cases illustrate the format of a correct answer.
| Input sequence | Result |
| --- | --- |
| SCFLSMYVISV | inactive |
| EGFMSFPTN | inactive |
| ICYILILYTELVRSSLPFLG | inactive |
| QSTSQLRLYELSR | -0.206 |

Request: Name the recorded amyloid nucleation score for `FENYYGSHGDFGVYDKFNHL` .
Response: inactive

====

test: amyloid nucleation score (Sup35N fusion, yeast selection) (log enrichment); library NNK3; higher = more nucleation; inactive = no reads after selection
Measure: amyloid nucleation score

These solved cases illustrate the format of a correct answer.
| Input sequence | amyloid nucleation score |
| --- | --- |
| FENSLFYTKVMDPCSFVWYW | inactive |
| LVVYYYLCACNYGARRFSWC | 1.15 |
| RLKMGLSN | -0.846 |
| PATVNRSWNFGIRFNGARNN | -0.404 |
| NCLVVTGRKVPSETHLVFLM | inactive |
| TFSDVGLFYLTQYDKVPFDL | inactive |
| ARFLYAVVLRWFIMEYRAGT | inactive |
| VIFLGAYHNSLLNRAMHSGH | 1.45 |

Request: Name the recorded amyloid nucleation score for `FVSWWNRSYVCVWIKLMNWR` .
Response: inactive

Request: Name the recorded amyloid nucleation score for `LFRVDRPTNCGPYFAYHEYT` .
Response: inactive

Request: Name the recorded amyloid nucleation score for `HALSRDVVKMLCSFNNYLTW` .
Response: inactive

Request: Name the recorded amyloid nucleation score for `SLRNRLVVTSVDYRMHLRRG` .
Response: inactive

Request: Name the recorded amyloid nucleation score for `LKLMKNDCRFSNGNLVVVRV` .
Response: inactive

Taken from the supplement of paper PMC12042874.
